B1: ZNF649 (parent)
chain: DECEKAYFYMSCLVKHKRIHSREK

Variants of: B1
Experiment: protein stability index of a GFP-peptide fusion (GPS, HEK-293T) (PSI 1-6); higher = more stable;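 also: lentivirally expressed fusions sorted by FACS into six bins by GFP to DsRed ratio, PSI derived from sequencing read proportions per bin multiplied by bin number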
Conditions: c terminus: a fixed tail appended
// reported protein stability index for each item listed
Give a plain numeric answer without units written out.

// solved cases for protein stability index follow
INSERT INTO results (variantnotation, observed) VALUES
  ('Y9K', 3.73),
  ('E4V', 1.79),
  ('E4P', 2.45),
  ('F8S', 3.78),
  ('Y7S', 3.3);

Turning now to a further variant:
// protein stability index value for S21T : 2.15

meta.source: the supplement of paper PMC10567573
